Where these numbers come from: patent US8119624B2

As shown below, each of these molecules has a reported activation at 10 µM value.
Target: Full-length glucokinase (beta cell isoform) (Homo sapiens, UniProt P35557)
Construct: Full-length glucokinase (beta cell isoform) was His-tagged at N-terminus; His tag (N); made in house
Test: Glucokinase biochemical assay (PK/LDH-coupled, NADH depletion at 340 nm): % activation, EC50, % max activation
Details: 10 uM compound; 5 mM glucose; % Activation=(Va/Vo−1)×100; read-out: % Activation at 10 uM

molecular string	activation at 10 µM, %
Cn1ccc(NC(=O)c2cc(Oc3ccc(S(=O)(=O)C4CC4)c(F)c3)c3c(c2)OC(C)(C)C3)n1	173
Cc1cc(NC(=O)c2cc(Oc3ccc(S(C)(=O)=O)cc3)c3c(c2)OC(C)(C)C3)no1	102
CCOc1ccc(NC(=O)c2cc(Oc3ccc(S(=O)(=O)N4CCC4)cc3)c3cc(C)oc3c2)nc1	123

###

Molecular target: Full-length glucokinase (beta cell isoform) (Homo sapiens)
Construct: Full-length glucokinase (beta cell isoform) was His-tagged at N-terminus; His tag (N); made in house
Test: Glucokinase biochemical assay (PK/LDH-coupled, NADH depletion at 340 nm): % activation, EC50, % max activation
Details: 5 mM glucose; GK activation; read-out: EC50
Procedure: Full-length glucokinase (beta cell isoform) was His-tagged at N-terminus and purified by a Ni column followed by size exclusion chromatography. Glucose was obtained from Calbiochem, and other reagents were from Sigma. […] Glucokinase was added to the buffer mixture to initiate the reaction in the presence and absence of compound. Reaction was monitored by absorbance at 340nm due to the depletion of NADH. The initial reaction velocity was measured by the slope of a linear time course of 200-900 sec. […]
pEC50: −log10 of the molar value.
# cutoff 6 applies to pEC50; >= gives Yes, < gives No

compound	discrete label
Cn1ccc(NC(=O)c2cc(Oc3ccc(S(C)(=O)=O)cc3)c3occc3c2)n1	No
Cc1ccc(NC(=O)c2cc(Oc3ccc(S(C)(=O)=O)cc3)c3ccsc3c2)nc1	Yes
CNC(=O)c1ccc(Oc2cc(C(=O)Nc3cnn(C)n3)cc3c2CC(C)(C)O3)cn1	Yes
COCC1(C)Cc2c(Oc3cc(F)ccc3S(C)(=O)=O)cc(C(=O)Nc3ccn(C)n3)cc2O1 (stereo not drawn)	No
Cn1ccc(NC(=O)c2cc(Oc3ccc(C(=O)N4CCC4)cc3)c3c(c2)OC(C)(C)C3)n1	Yes
CCc1cc2c(Oc3ccc(S(C)(=O)=O)cc3)cc(C(=O)Nc3ccn(C)n3)cc2o1	No
Cn1ncc(NC(=O)c2cc(Oc3ccc(S(C)(=O)=O)cc3Cl)c3c(c2)OC(C)(C)C3)n1	Yes
Cn1ncc(NC(=O)c2cc(Oc3ccc(S(C)(=O)=O)cc3)cc3c2CC(C)(C)O3)n1	No
COc1cnc(NC(=O)c2cc(Oc3ccc(S(=O)(=O)N(C)C)c(F)c3)c3cc(C)oc3c2)cn1	Yes
Cc1ccc(NC(=O)c2cc(Oc3ccc(S(C)(=O)=O)cn3)c3cc(C)oc3c2)nc1	No
Cc1cc(NC(=O)c2cc(Oc3ccc(C(=O)N(C)C)cc3)c3c(c2)OC(C)(C)C3)no1	No
Cc1ccc(NC(=O)c2cc(Oc3ccc(C(F)F)cc3)c3cc(C(=O)N(C)C)oc3c2)nc1	No
CCS(=O)(=O)c1ccc(Oc2cc(C(=O)Nc3cnn(C)n3)cc3c2CC(C)(C)O3)cc1	Yes
Cn1ccc(NC(=O)c2cc(Oc3cc(F)ccc3S(C)(=O)=O)c3c(c2)OC(C)(C)C3)n1	No
CC1(C)Cc2c(Oc3ccc(S(C)(=O)=O)cc3)cc(C(=O)Nc3cnccn3)cc2O1	Yes
Cn1ccc(NC(=O)c2cc(Oc3ccc(-c4ncon4)nc3)c3c(c2)OC(C)(C)C3)n1	Yes
CN(C)C(=O)c1ccc(Oc2cc(C(=O)Nc3ccc(CO)cn3)cc3c2CC(C)(C)O3)cc1	Yes
Cc1ccc(NC(=O)c2cc(OC(C)C)cc3oc(Br)cc23)nc1	No
COCC1(C)Cc2c(Oc3ccc(C(=O)N4CCC4)c(F)c3)cc(C(=O)Nc3ccn(C)n3)cc2O1 (single isomer, unassigned; (+)) [Example 244]	Yes

###

Below, each of the molecules is paired with its reported Emax value.
Biological target: Full-length glucokinase (beta cell isoform) (Homo sapiens, UniProt P35557)
Construct: Full-length glucokinase (beta cell isoform) was His-tagged at N-terminus; His tag (N); made in house
Sequence (P35557 1-465): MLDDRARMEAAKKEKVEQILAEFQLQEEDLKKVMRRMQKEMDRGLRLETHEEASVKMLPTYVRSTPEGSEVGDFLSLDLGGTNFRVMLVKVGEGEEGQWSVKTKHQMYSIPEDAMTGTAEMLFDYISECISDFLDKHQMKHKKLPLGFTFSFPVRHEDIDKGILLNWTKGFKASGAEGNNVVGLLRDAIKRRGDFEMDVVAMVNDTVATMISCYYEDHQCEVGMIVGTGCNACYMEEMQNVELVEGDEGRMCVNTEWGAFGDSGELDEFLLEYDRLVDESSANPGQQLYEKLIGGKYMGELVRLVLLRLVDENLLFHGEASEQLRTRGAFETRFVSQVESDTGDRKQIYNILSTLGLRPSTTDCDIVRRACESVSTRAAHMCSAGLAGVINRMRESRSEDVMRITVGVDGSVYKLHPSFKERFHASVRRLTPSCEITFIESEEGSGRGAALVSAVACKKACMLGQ
Assay: Glucokinase biochemical assay (PK/LDH-coupled, NADH depletion at 340 nm): % activation, EC50, % max activation
Details: 5 mM glucose; fitted maximum activation; read-out: % Max Activation
measured quantity: Emax (%)

molecule	measured quantity	unit spec	value observed
Cn1ccc(NC(=O)c2cc(Oc3ccc(S(C)(=O)=O)cc3)c3c(c2)OC(C(F)F)C3)n1 (centres unmarked)	Emax	%	242
Cc1ccc(NC(=O)c2cc(Oc3ccc(S(C)(=O)=O)cc3)c3ccoc3c2)nc1	Emax	%	94.7
COCc1cc2c(Oc3ccc(S(C)(=O)=O)cc3)cc(C(=O)Nc3ccn(C)n3)cc2o1	Emax	%	137
COCc1cc2c(Oc3ccc(S(C)(=O)=O)cc3)cc(C(=O)Nc3cnc(OC)cn3)cc2o1	Emax	%	121
Cn1ccc(NC(=O)c2cc(Oc3ccc(C(=O)N4CC(F)(F)C4)cc3)c3c(c2)OC(C)(C)C3)n1	Emax	%	149
Cc1ccc(NC(=O)c2cc(Oc3ccc(S(C)(=O)=O)cc3)c3ccsc3c2)nc1	Emax	%	110
CN(C)Cc1ccc(Oc2cc(C(=O)Nc3ccn(C)n3)cc3c2CC(C)(C)O3)c(F)c1	Emax	%	133
Cn1ccc(NC(=O)c2cc(OCC3CC3)c3c(c2)OC(C)(C)C3)n1	Emax	%	157
Cc1ccc(NC(=O)c2cc(Oc3ccc(S(C)(=O)=O)cn3)c3cc(C)oc3c2)nc1	Emax	%	87
CCS(=O)(=O)c1ccc(Oc2cc(C(=O)Nc3cnn(C)n3)cc3c2CC(C)(C)O3)cc1	Emax	%	293
COCC1(C)Cc2c(Oc3ccc(C(=O)N4CCC4)c(F)c3)cc(C(=O)Nc3ccn(C)n3)cc2O1 (single isomer, unassigned; (-)) [Example 243]	Emax	%	218
Cn1ccc(NC(=O)c2cc(Oc3ccc(S(C)(=O)=O)cc3Cl)c3c(c2)OC(C)(C)C3)n1	Emax	%	218
Cc1nccnc1C(C)Oc1cc(C(=O)Nc2ccn(C)n2)cc2c1CC(C)(C)O2 (centres unmarked)	Emax	%	148
COc1cnc(NC(=O)c2cc(Oc3ccc(S(C)(=O)=O)cn3)c3cc(C)oc3c2)cn1	Emax	%	218

###

Biological target: Full-length glucokinase (beta cell isoform) (Homo sapiens)
Construct: Full-length glucokinase (beta cell isoform) was His-tagged at N-terminus; His tag (N); made in house
Experiment: Glucokinase biochemical assay (PK/LDH-coupled, NADH depletion at 340 nm): % activation, EC50, % max activation
Details: 5 mM glucose; GK activation; read-out: EC50
Recorded log10(EC50) by entry
measured quantity: log10(EC50) (log10 of the value in nM)

compound	log10(EC50)
Cc1ccc(NC(=O)c2cc(Oc3ccc(S(C)(=O)=O)cc3)c3ccoc3c2)nc1	3.49
Cc1ccnc(C(C)Oc2cc(C(=O)Nc3ccn(C)n3)cc3c2CC(C)(C)O3)c1 (centres unmarked)	3.93
CN(C)S(=O)(=O)c1ccc(Oc2cc(C(=O)Nc3cnn(C)n3)cc3c2CC(C)(C)O3)cc1	2.28
Cc1cc2c(Oc3ccc(S(=O)(=O)N4CCC4)cc3)cc(C(=O)Nc3ccc(CO)cn3)cc2o1	2.18
COc1cnc(NC(=O)c2cc(Oc3ccc(S(C)(=O)=O)cc3)c3cc(C(=O)N(C)C)oc3c2)cn1	2.75
Cc1cc2c(Oc3ccc(S(C)(=O)=O)cc3)cc(C(=O)Nc3ccon3)cc2o1	3.76
CCNC(=O)c1ncc(Oc2cc(C(=O)Nc3ccn(C)n3)cc3c2CC(C)(C)O3)cc1F	2.54
COCc1cc2c(Oc3ccc(S(C)(=O)=O)cc3)cc(C(=O)Nc3cnn(C)n3)cc2o1	2.96
Cn1ccc(NC(=O)c2cc(Oc3ccc(-c4ncon4)c(F)c3)c3c(c2)OC(C)(C)C3)n1	2.02
CN(C)C1CN(C(=O)c2ccc(Oc3cc(C(=O)Nc4ccn(C)n4)cc4c3CC(C)(C)O4)c(F)c2)C1	2.76
Cc1ccc(NC(=O)c2cc(Oc3ccc(C(=O)N(C)C)c(F)c3)c3c(c2)OC(C)(CO)C3)nc1 (centres unmarked)	1.30
COCc1cc2c(Oc3ccc(S(C)(=O)=O)cc3)cc(C(=O)Nc3cc(OC)ccn3)cc2o1	2.52
CN(C)C(=O)c1ccc(Oc2cc(C(=O)Nc3ccon3)cc3c2CC(C)(C)O3)cc1	2.67
COc1ccnc(NC(=O)c2cc(Oc3ccc(S(C)(=O)=O)cc3)c3c(c2)OC(C)(C)C3)c1	2.98
Cc1ccc(NC(=O)c2cc(Oc3ccc(C(=O)N(C)C)nc3)c3c(c2)OC(C)(C)C3)nc1	1.58
Cn1ccc(NC(=O)c2cc(Oc3ccc(C#N)nc3)c3c(c2)OC(C)(C)C3)n1	3.04
CCc1nc(O)cc(COc2cc(C(=O)Nc3ccn(C)n3)cc3c2CC(C)(C)O3)n1	3.26
Cn1ccc(NC(=O)c2cc(Oc3ccc(C(=O)N4CCC4)nc3)c3c(c2)OC(C)(C)C3)n1	1.74
Cc1ccc(NC(=O)c2cc(Oc3ccc(S(C)(=O)=O)cc3)cc3c2CC(C)O3)nc1 (centres unmarked)	3.72
Cn1ccc(NC(=O)c2cc(Oc3ccc(C(=O)Nc4ccn(C)n4)c(F)c3)c3c(c2)OC(C)(C)C3)n1	2.38
